From: patent US11141404B1

- EXPERIMENT NOTES: Single ascending oral dose pharmacokinetics in humans
- Type: in vivo
- CONDITIONS USED: human plasma, single oral dose 1-200 mg; read-out: terminal elimination half-life
MEASURED QUANTITY: half-life

# compound CC(C)(C)NC(=O)N1CC(O[C@H](c2ccc(Cl)cc2)c2ccccc2C(F)(F)F)C1 ; its half-life = ≤ 19 days
